# reported pIC50; entries follow
testedOn: Mammalian Thymidylate Synthase (Homo sapiens, UniProt P04818)
Construct: made in house; host or cells: Escherichia coli
Sequence (P04818 whole entry): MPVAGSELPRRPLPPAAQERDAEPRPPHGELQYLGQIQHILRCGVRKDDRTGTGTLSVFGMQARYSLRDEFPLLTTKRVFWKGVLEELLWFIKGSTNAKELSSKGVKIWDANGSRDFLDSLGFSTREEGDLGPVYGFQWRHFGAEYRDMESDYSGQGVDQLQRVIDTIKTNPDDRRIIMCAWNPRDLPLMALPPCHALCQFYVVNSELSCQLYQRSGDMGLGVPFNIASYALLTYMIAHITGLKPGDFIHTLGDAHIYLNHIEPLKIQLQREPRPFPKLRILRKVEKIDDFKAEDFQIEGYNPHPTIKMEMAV
measurementNotes: Thymidylate synthase inhibition, tritium release assay
Type: biochemical
pIC50: −log10 of the molar value.

>>> datavalue("Nc1nc2ccc3ccc(Cl)cc3c2c(=O)[nH]1")
"> 6.00"
>>> datavalue("Nc1ccc2ccc3nc(N)[nH]c(=O)c3c2c1 [3,9-Diaminobenzo(f)quinazolin-1(2H)-one]")
"> 6.00"
>>> datavalue("Cc1ccc2ccc3nc(N)nc(O)c3c2c1")
"> 6.00"
>>> datavalue("Nc1nc(O)c2c(ccc3cc(N)c(Br)cc32)n1")
"> 6.00"
>>> datavalue("CCN(CC)S(=O)(=O)c1cc2c(ccc3nc(N)[nH]c(=O)c32)cc1Br")
"3.52 to 6.00"

Using the record for Nc1nc(O)c2c(ccc3ccc(Br)cc32)n1 , report its pIC50.
> 6.00
